# protocol: Plasma stability test, rat plasma
# testParameters: Rat plasma, 37°C, 15 min
Items are presented alongside their recorded Remaining rate (%) 15 min.
The answer is to be given in %; state only the numeric part.

These recorded examples may help you get a feel for the data.
{"columns": ["compound", "readoutName", "numericValue"],
 "data": [
  ["[2H]C([2H])(Oc1nc2c3c(nc(-c4cc(O)cc5ccc(F)c(C#C)c45)c(F)c3n1)O[C@@H](C)[C@@H]1[C@@H]3CC[C@H](CN21)N3)C1(C([2H])([2H])N2CCC(=CF)CC2)CC1", "Remaining rate (%) 15 min", 99.67],
  ["[2H]C([2H])([2H])[C@@H]1Oc2nc(-c3cc(O)cc4ccc(F)c(C#C)c34)c(F)c3nc(OCC4(CN5CCC(=CF)CC5)CC4)nc(c23)N2C[C@H]3CC[C@H](N3)[C@@H]12", "Remaining rate (%) 15 min", 97.07],
  ["C#Cc1c(F)ccc2cc(O)cc(-c3nc4c5c(nc(OCC6(CN7CCC(=CF)CC7)CC6)nc5c3F)N3C[C@H]5CC[C@H](N5)[C@H]3[C@H](C)O4)c12", "Remaining rate (%) 15 min", 110.22]
]}

Entry `C#Cc1c(F)ccc2cc(O)cc(-c3nc4c5c(nc(OCC6(CN7CCC(=C(F)F)CC7)CC6)nc5c3F)N3C[C@H]5CC[C@H](N5)[C@H]3CO4)c12` — recorded Remaining rate (%) 15 min = 95.76

Recorded Remaining rate (%) 15 min (compound CC[C@H](C)C(=O)O[C@H]1C[C@@H](C)C=C2C=C[C@H](C)[C@H](CC[C@@H]3C[C@@H](O)CC(=O)O3)[C@H]21 [Lovastatin, lovastatin, reference compound] ): 21.15

Record `C#Cc1c(F)ccc2cc(O)cc(-c3nc4c5c(nc(OCC6(CN7CCC(=C(F)F)CC7)CC6)nc5c3F)N3C[C@H]5CC[C@H](N5)[C@H]3[C@H](C)O4)c12` , field Remaining rate (%) 15 min: 96.27

----------
# protocol: Plasma stability test, human plasma
# Format: in vitro ADME
# testParameters: Human plasma, 37°C; read-out: t1/2 (converted)
Note to self: values exactly at 100 h are T. So half-life at or above 100 h is T, below is F.

Solved cases (4 shown):
{"columns": ["molecule", "labelClass"],
 "data": [
  ["[2H]C([2H])([2H])[C@@H]1Oc2nc(-c3cc(O)cc4ccc(F)c(C#C)c34)c(F)c3nc(OCC4(CN5CCC(=CF)CC5)CC4)nc(c23)N2C[C@H]3CC[C@H](N3)[C@@H]12 [Example 164]", "F"],
  ["[2H]C([2H])(Oc1nc2c3c(nc(-c4cc(O)cc5ccc(F)c(C#C)c45)c(F)c3n1)O[C@@H](C)[C@@H]1[C@@H]3CC[C@H](CN21)N3)C1(C([2H])([2H])N2CCC(=CF)CC2)CC1 [Example 291]", "T"],
  ["C#Cc1c(F)ccc2cc(O)cc(-c3nc4c5c(nc(OCC6(CN7CCC(=C(F)F)CC7)CC6)nc5c3F)N3C[C@H]5CC[C@H](N5)[C@H]3CO4)c12 [Example 1-1]", "F"],
  ["C#Cc1c(F)ccc2cc(O)cc(-c3nc4c5c(nc(OCC6(CN7CCC(=C(F)F)CC7)CC6)nc5c3F)N3C[C@H]5CC[C@H](N5)[C@H]3[C@H](C)O4)c12 [Example 19-1]", "F"]
]}

Below: the item to evaluate.
Data request: Quick check: does [2H]C([2H])([2H])[C@@H]1Oc2nc(-c3cc(O)cc4ccc(F)c(C#C)c34)c(F)c3nc(OCC4(CN5CCC(=C(F)F)CC5)CC4)nc(c23)N2C[C@H]3CC[C@H](N3)[C@@H]12 [Example 161] have half-life greater than or equal to 100 h?
Data returned: T

----------
# protocol: Pharmacokinetic determination in rats (IV and PO, plasma, LCMS/MS)
# Type: in vivo, SD rats
# testParameters: rat, in vivo; PO, 30 mg/kg, male SD rats, overnight fasting, plasma; read-out: Cmax
readoutName: Cmax (ng/mL)
Please reply with the bare figure in ng/mL and do not write the unit itself.

// solved cases for Cmax follow
{"columns": ["molecule", "readoutName", "numericValue"],
 "data": [
  ["C#Cc1c(F)ccc2cc(O)cc(-c3nc4c5c(nc(OCC6(CN7CCC(=CF)CC7)CC6)nc5c3F)N3C[C@H]5CC[C@H](N5)[C@H]3[C@H](CC)O4)c12", "Cmax", 271],
  ["[2H]C([2H])(Oc1nc2c3c(nc(-c4cc(O)cc5ccc(F)c(C#C)c45)c(F)c3n1)O[C@@H](C)[C@@H]1[C@@H]3CC[C@H](CN21)N3)C1(C([2H])([2H])N2CCC(=C(F)F)CC2)CC1", "Cmax", 280]
]}

The reported Cmax of the molecule `C#Cc1c(F)ccc2cc(O)cc(-c3nc4c5c(nc(OCC6(CN7CCC(=C(F)F)CC7)CC6)nc5c3F)N3C[C@H]5CC[C@H](N5)[C@H]3[C@H](CC)O4)c12` was 471

Briefly, Cmax measured for `C#Cc1c(F)ccc2cc(O)cc(-c3nc4c5c(nc(OCC6(CN7CCC(=CF)CC7)CC6)nc5c3F)N3C[C@H]5CC[C@H](N5)[C@H]3[C@H](C)O4)c12` : 103

// sample C#Cc1c(F)ccc2cc(O)cc(-c3nc4c5c(nc(OCC6(CN7CC8CC(=C(F)F)CC8C7)CC6)nc5c3F)N3C[C@H]5CC[C@H](N5)[C@H]3[C@H](CC)O4)c12 (some centres unmarked) , its Cmax was 869

----------
# protocol: Pharmacokinetic determination in rats (IV and PO, plasma, LCMS/MS)
# Assay type: in vivo, SD rats
# testParameters: rat, in vivo, po, 30 mg/kg
readoutName: half-life (h)
Number only, in h; omit the unit.

Form: compound = `[2H]C([2H])([2H])[C@@H]1Oc2nc(-c3cc(O)cc4ccc(F)c(C#C)c34)c(F)c3nc(OCC4(CN5CCC(=C(F)F)CC5)CC4)nc(c23)N2C[C@H]3CC[C@H](N3)[C@@H]12` ; half-life = 6.9

----------
# protocol: Plasma stability test, dog plasma;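 note: parent compound left in dog plasma quantified by LC-MS with positive electrospray ionization, selected reaction monitoring and an internal standard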
# Type: in vitro ADME
# testParameters: Dog plasma, 37°C; read-out: t1/2 (converted)
Where half-life equals or exceeds 50 h, the correct label is yes (1); where it does not, the label is no (0).

{"columns": ["molecularString", "labelClass"],
 "data": [
  ["[2H]C([2H])([2H])[C@@H]1Oc2nc(-c3cc(O)cc4ccc(F)c(C#C)c34)c(F)c3nc(OCC4(CN5CCC(=CF)CC5)CC4)nc(c23)N2C[C@H]3CC[C@H](N3)[C@@H]12", "yes (1)"]
]}

Data request: Say whether `C#Cc1c(F)ccc2cc(O)cc(-c3nc4c5c(nc(OCC6(CN7CCC(=C(F)F)CC7)CC6)nc5c3F)N3C[C@H]5CC[C@H](N5)[C@H]3[C@H](C)O4)c12` shows half-life of 50 h or more.
Data returned: yes (1)

Data request: Hi, just wondering whether `[2H]C([2H])(Oc1nc2c3c(nc(-c4cc(O)cc5ccc(F)c(C#C)c45)c(F)c3n1)O[C@@H](C)[C@@H]1[C@@H]3CC[C@H](CN21)N3)C1(C([2H])([2H])N2CCC(=CF)CC2)CC1` shows half-life of 50 h or higher.
Data returned: yes (1)

Data request: Record `[2H]C([2H])([2H])[C@@H]1Oc2nc(-c3cc(O)cc4ccc(F)c(C#C)c34)c(F)c3nc(OCC4(CN5CCC(=C(F)F)CC5)CC4)nc(c23)N2C[C@H]3CC[C@H](N3)[C@@H]12` ; criterion: half-life no lower than 50 h. Met?
Data returned: no (0)

----------
# protocol: Plasma stability test, human plasma;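 note: test compound incubated in human plasma, quantified by LC-MS/MS (positive-ion ESI, MRM) against an internal standard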
# Format: in vitro ADME
# testParameters: Human plasma, 37°C, 30 min
Recorded Remaining rate (%) 30 min values for a group of compounds are listed next.
Numbers only; they are read as %.

Some entries whose results are on file:
{"columns": ["molecularString", "measurementUnits", "Remaining rate (%) 30 min"],
 "data": [
  ["C#Cc1c(F)ccc2cc(O)cc(-c3nc4c5c(nc(OCC6(CN7CCC(=CF)CC7)CC6)nc5c3F)N3C[C@H]5CC[C@H](N5)[C@H]3[C@H](C)O4)c12", "%", 97.59],
  ["[2H]C([2H])([2H])[C@@H]1Oc2nc(-c3cc(O)cc4ccc(F)c(C#C)c34)c(F)c3nc(OCC4(CN5CCC(=CF)CC5)CC4)nc(c23)N2C[C@H]3CC[C@H](N3)[C@@H]12", "%", 91.02]
]}

Sample `[2H]C([2H])(Oc1nc2c3c(nc(-c4cc(O)cc5ccc(F)c(C#C)c45)c(F)c3n1)O[C@@H](C)[C@@H]1[C@@H]3CC[C@H](CN21)N3)C1(C([2H])([2H])N2CCC(=CF)CC2)CC1` ; Remaining rate (%) 30 min observed: 95.46

Briefly, Remaining rate (%) 30 min measured for `C#Cc1c(F)ccc2cc(O)cc(-c3nc4c5c(nc(OCC6(CN7CCC(=C(F)F)CC7)CC6)nc5c3F)N3C[C@H]5CC[C@H](N5)[C@H]3CO4)c12` : 101.72

response.value for `C#Cc1c(F)ccc2cc(O)cc(-c3nc4c5c(nc(OCC6(CN7CCC(=C(F)F)CC7)CC6)nc5c3F)N3C[C@H]5CC[C@H](N5)[C@H]3[C@H](C)O4)c12` (field: Remaining rate (%) 30 min) = 93.15
